Source listed as ChEMBL document CHEMBL1145426.

This section presents compounds with their documented pKd values.
# assayRemarks: Binding affinity to BSA 1 by isothermal titration calorimetry
# Design: species or system Bos taurus
Where a SMILES comes first, the peptide text is derived from it. [ ]: non-standard residue; d: D form. The star is where a group is joined. Bip = N[C@@H](Cc1ccc(-c2ccccc2)cc1)C(=O)O; NHPhenethyl = c1ccc(CCN*)cc1; NHBn = c1ccc(CN*)cc1; NHiPr = CC(C)N*
Remember the convention: pKd equals -log10 of concentration in molar.

# count of solved cases: 3
{"compound": "N=C(N)NCCC[C@H](NC(=O)[C@H](Cc1ccc(-c2ccccc2)cc1)NC(=O)[C@@H](N)CCCNC(=N)N)C(=O)N(Cc1ccccc1)Cc1ccccc1", "pKd": 5.00}
{"compound": "N=C(N)NCCC[C@H](NC(=O)[C@H](Cc1ccc(-c2ccccc2)cc1)NC(=O)[C@@H](N)CCCNC(=N)N)C(=O)NCCCc1ccccc1", "pKd": 4.65}
{"compound": "N=C(N)NCCC[C@H](NC(=O)[C@H](Cc1ccc(-c2ccccc2)cc1)NC(=O)[C@@H](N)CCCNC(=N)N)C(=O)NCCc1ccccc1 (H-Arg-[Bip]-Arg-NHPhenethyl)", "pKd": 4.95}

Quick note, pKd for CCN(Cc1ccccc1)C(=O)[C@H](CCCNC(=N)N)NC(=O)[C@H](Cc1ccc(-c2ccccc2)cc1)NC(=O)[C@@H](N)CCCNC(=N)N landed at 4.76

Quick note, pKd for C[C@H](CNC(=O)[C@H](CCCNC(=N)N)NC(=O)[C@H](Cc1ccc(-c2ccccc2)cc1)NC(=O)[C@@H](N)CCCNC(=N)N)c1ccccc1 landed at 4.91

Quick note, pKd for CC(C)NC(=O)[C@H](CCCNC(=N)N)NC(=O)[C@H](Cc1ccc(-c2ccccc2)cc1)NC(=O)[C@@H](N)CCCNC(=N)N (H-Arg-[Bip]-Arg-NHiPr) landed at 4.85

Quick note, pKd for N=C(N)NCCC[C@H](NC(=O)[C@H](Cc1ccc(-c2ccccc2)cc1)NC(=O)[C@@H](N)CCCNC(=N)N)C(=O)NCc1ccccc1 (H-Arg-[Bip]-Arg-NHBn) landed at 5.37

Quick note, pKd for C[C@@H](CNC(=O)[C@H](CCCNC(=N)N)NC(=O)[C@H](Cc1ccc(-c2ccccc2)cc1)NC(=O)[C@@H](N)CCCNC(=N)N)c1ccccc1 landed at 4.91

Quick note, pKd for CN(Cc1ccccc1)C(=O)[C@H](CCCNC(=N)N)NC(=O)[C@H](Cc1ccc(-c2ccccc2)cc1)NC(=O)[C@@H](N)CCCNC(=N)N landed at 5.17
